- Tested on: NCI-H1666
- measurement protocol: relative viability (nuclei count vs DMSO), 5 days (fraction); higher = more cells survive
- condition info: first compound 2.53 µM
property measured: relative viability
Write the number on its own, no unit after it.

molecule	target or system	relative viability
O=c1[nH]c2ccccc2n1C1CCN(CCCC(c2ccc(F)cc2)c2ccc(F)cc2)CC1 [Pimozide] + CC(=O)c1c(C)c2cnc(Nc3ccc(N4CCNCC4)cn3)nc2n(C2CCCC2)c1=O [Palbociclib] (partner 0.5 µM)	NCI-H1666	0.715
O=c1[nH]c2ccccc2n1C1CCN(CCCC(c2ccc(F)cc2)c2ccc(F)cc2)CC1 [Pimozide] + Nc1nc2[nH]cc(CCc3ccc(C(=O)N[C@@H](CCC(=O)O)C(=O)O)cc3)c2c(=O)[nH]1 [Pemetrexed] (partner 0.2 µM)	NCI-H1666	0.891

Reported relative viability ( O=c1[nH]c2ccccc2n1C1CCN(CCCC(c2ccc(F)cc2)c2ccc(F)cc2)CC1 [Pimozide] + Nc1ncn([C@H]2C[C@H](O)[C@@H](CO)O2)c(=O)n1 [Decitabine] (partner 2 µM) ) = 0.695

The reported value for Cc1cnc(-c2cnc(NCCNc3ccc(C#N)cn3)nc2-c2ccc(Cl)cc2Cl)[nH]1 + Cc1nc(Nc2ncc(C(=O)Nc3c(C)cccc3Cl)s2)cc(N2CCN(CCO)CC2)n1 [Dasatinib] (partner 0.075 µM) in terms of relative viability is 0.7

* * *

- System: NCI-H3122
- measurement protocol: relative viability (nuclei count vs DMSO), 5 days (fraction); higher = more cells survive
- condition info: first compound 4 µM
Attribute: relative viability
// return a plain number; no unit text

Worked cases, relative viability given:
molecule	val
Cc1sc2c(c1C)C(c1ccc(Cl)cc1)=N[C@@H](CC(=O)OC(C)(C)C)c1nnc(C)n1-2 [JQ1] + CCNC(=O)c1noc(-c2cc(C(C)C)c(O)cc2O)c1-c1ccc(CN2CCOCC2)cc1 [Luminespib] (partner 0.01 µM)	0.131
Cc1sc2c(c1C)C(c1ccc(Cl)cc1)=N[C@@H](CC(=O)OC(C)(C)C)c1nnc(C)n1-2 [JQ1] + O=C(CCCCCCC(=O)Nc1ccccc1)NO [Vorinostat] (partner 1 µM)	0.664
Cc1sc2c(c1C)C(c1ccc(Cl)cc1)=N[C@@H](CC(=O)OC(C)(C)C)c1nnc(C)n1-2 [JQ1] + C[C@@H](Oc1cc(-c2cnn(C3CCNCC3)c2)cnc1N)c1c(Cl)ccc(F)c1Cl [Crizotinib] (partner 1 µM)	0.413

Next, consider the following molecule.
The molecule listed as Cc1sc2c(c1C)C(c1ccc(Cl)cc1)=N[C@@H](CC(=O)OC(C)(C)C)c1nnc(C)n1-2 [JQ1] + CC(C)C[C@H](NC(=O)[C@H](Cc1ccccc1)NC(=O)c1cnccn1)B(O)O [Bortezomib] (partner 0.002 µM) shows relative viability equal to 0.905

* * *

- Tested on: NCI-H441
- measurement protocol: relative viability (nuclei count vs DMSO), 5 days (fraction); higher = more cells survive
- condition info: first compound 0.08 µM
This listing pairs compounds with measured relative viability.

Consider the worked cases shown below.
compound	relative viability
O=c1[nH]c2ccccc2n1C1CCN(CCCC(c2ccc(F)cc2)c2ccc(F)cc2)CC1 [Pimozide] + CC1(C)CCC(c2ccc(Cl)cc2)=C(CN2CCN(c3ccc(C(=O)NS(=O)(=O)c4ccc(N[C@H](CCN5CCOCC5)CSc5ccccc5)c(S(=O)(=O)C(F)(F)F)c4)cc3)CC2)C1 [Navitoclax] (partner 0.5 µM)	0.685
O=c1[nH]c2ccccc2n1C1CCN(CCCC(c2ccc(F)cc2)c2ccc(F)cc2)CC1 [Pimozide] + CCNC(=O)c1noc(-c2cc(C(C)C)c(O)cc2O)c1-c1ccc(CN2CCOCC2)cc1 [Luminespib] (partner 0.01 µM)	0.413

Field: next compound
Recorded result, O=c1[nH]c2ccccc2n1C1CCN(CCCC(c2ccc(F)cc2)c2ccc(F)cc2)CC1 [Pimozide] + N=C(N)NC(=N)NCCc1ccccc1 [Phenformin] (partner 250 µM) , relative viability: 0.96
